Source listed as patent US20210371503A1.

- Test target: T1, receptor-binding domain (RBD) of the spike (S) protein of SARS-CoV-2 (SARS-CoV-2, UniProt P0DTC2 319-541)
- T1 construct: also called soluble RBD
- Test description: ELISA, coated RBD [cont'd]
Consider the following binders and their measured EC50 readings.

HbnC3t1p1_F4 (antibody, V domains shown) VH: QVQLVESGGGVVQPGRSLRLSCAATGFTFRRYGMHWVRQAPGKGLEWVAGILFDGSNKYYVDSVKGRFTISRDSSRNTLYLQLNSLRREDTAVYYCAKGGDYEWELLESWGQGTLVTVSS VL: DIQMTQSPSTVSASVGDRVTITCRASQSIDNWLAWYQEKPGKAPKVLIYKASSLESGVPSRFSGRGSGTEFTLTISSLQPGDFATYYCQHYHSFPLTFGGGTKVDIK | < 1000 mg/L
HbnC3t1p2_B10 (antibody, V domains shown) VH: EVQLVESGGGLVQPGGSLRLSCAASGFIVSSNYMSWVRQAPGKGLEWVSVIYSGGSTFYADSVKGRFTISRDNSKNTLYLQMNSLRAEDTAVYYCARDYGDYFFDYWGQGTLVTVSS VL: EIVLTQSPGTLSLSPGERATLSCRASQSVSSYLAWYQQKPGQAPRLLISGASSRAAGIPDRFSGSGSGTDFTLTINRLEPEDFAVYYCQQYGSSPRTFGQGTKLEIK | < 100 mg/L

Now let's try a different one.
Field request: EC50 | item: HbnC3t1p1_G4 (antibody, V domains shown) VH: EVQLVESGGGLVQPGGSLRLSCAASGFTVSSNYMSWVRQAPGKGLEWVSVIYSGGSTFYADSVKGRFTISRDNSKNTLYLQMNSLRAEDTAVYYCARDFGDFFFDYWGQGTLVTVSS VL: EIVLTQSPGTLSLSPGERATLSCRASQSVSSYLAWYQQKPGQAPRLLIYGVSSRATGIPDRFSGSGSGTDFTLTISRLEPEDFAVYYCQQYGSSPRTFGQGTKVEIK
< 100 mg/L
